# assayed_target: human PPARγ1 (Homo sapiens, UniProt P37231)
# method_summary: GeneBLAzer PPARγ1 non-DA reporter gene assay
quantity_kind: [ATVmax]: concentration of the tested compounds to induce the maximal activation% (µM)

>>> readout_value("CC(C)COC(=O)c1ccccc1C(=O)OCC(C)C [DiBP, diisobutyl phthalate]")
33
>>> readout_value("Oc1c(Br)ccc(Oc2ccc(Br)cc2Br)c1Br")
7
>>> readout_value("CC(C)(C)c1ccc(OP(=O)(Oc2ccc(C(C)(C)C)cc2)Oc2ccc(C(C)(C)C)cc2)cc1 [TBPP, tris (4,tert-butyl-phenyl) phosphate]")
11
>>> readout_value("Brc1ccc(Oc2ccc(Br)cc2Br)c(Br)c1")
7
>>> readout_value("CCCCOC(=O)c1ccccc1C(=O)OCc1ccccc1 [BzBP, benzylbutyl phthalate]")
10
>>> readout_value("Oc1c(Br)cc(Br)cc1Br")
7
>>> readout_value("CCCCC/C=C/C=C1/C(=O)C=C[C@@H]1C/C=C\\CCCC(=O)O [15d-PJG2, reference compound]")
33
>>> readout_value("Oc1c(I)cc(I)cc1I")
11
>>> readout_value("[Cl][Sn]([c]1ccccc1)([c]1ccccc1)[c]1ccccc1 [TPT, triphenyltin chloride]")
0.33
>>> readout_value("O=P(Oc1ccccc1)(Oc1ccccc1)Oc1ccccc1 [TPP, triphenyl phosphate]")
11
>>> readout_value("CCCCC(CC)COC(=O)c1c(Br)c(Br)c(Br)c(Br)c1C(=O)O (centres unmarked)")
3.3
